SYSTEM: T1, HLA class I molecule A02.01
T1 construct: Purified MHC class I complex; also called HLA-A02:01
EXPERIMENTAL PROTOCOL: competition with radiolabeled reference peptide on purified MHC I
REPORTED ENDPOINT: IC50 (nM)
Give your result in nM as a bare value.

BINDER	IC50 (nM)
QQSDLQPPA (also called MYC, E39D)	70
LQVTQTSFAL (also called MLL2, . . ; LSPH)	718
ALAPTLTHML (also called MLL2, . . ; LSPH)	39

Lab book: IC50 of YLGNHMNIAN (also called KIT, V654A) noted as 1340

Lab book: IC50 of LQEFDVQEAL (also called NDRG1: ERG) noted as 50300

Lab book: IC50 of AFSGEYIPTV (also called RAC1, P29S) noted as 781

Lab book: IC50 of IMSLWGLVS (also called NAB: STAT6 (variant 1 of Chmielecki et al.)) noted as 7320

Lab book: IC50 of IVSRTLLLV (also called MSH3(-1)) noted as 12.7

Lab book: IC50 of SLYIVGFYG (also called MEK, P124L) noted as 1060

Lab book: IC50 of IANLLGACTI (also called KIT, V654A) noted as 6420

Lab book: IC50 of LLQEFDVQEA (also called NDRG1: ERG) noted as 45

Lab book: IC50 of LLDILDTAGL (also called KRAS, Q61L) noted as 716

Lab book: IC50 of LIVSRTLLLV (also called MSH3(-1)) noted as 10900

Lab book: IC50 of RLWHLLLQV (also called MLL2, . . ; LSPH) noted as 1.3

Lab book: IC50 of FSGEYIPTV (also called RAC1, P29S) noted as 3

Lab book: IC50 of LLSTPPLSPS (also called MYC, P57S) noted as 1770
